System: A2780Cis (cisplatin-resistant human ovarian cancer)
test-name: In vitro cytotoxicity, SRB assay, A2780Cis
Assay type: cell-based
measured-attribute: SI A2780Cis

Please review the entries below; each comes with its answer.
structure-as-smiles: CC[C@@H](C(=O)[C@@H](C)[C@@H](O)[C@H](C)[C@@H]1O[C@@H]([C@@H](CC)C(=O)O)CC[C@@H]1C)[C@H]1O[C@]2(C=C[C@@H](NC(=O)OCCF)[C@]3(CC[C@@](C)([C@H]4CC[C@](O)(CC)[C@H](C)O4)O3)O2)[C@H](C)C[C@@H]1C
SI A2780Cis: 40.8

structure-as-smiles: CC[C@@H](C(=O)[C@@H](C)[C@@H](O)[C@H](C)[C@@H]1O[C@@H]([C@@H](CC)C(=O)O)CC[C@@H]1C)[C@H]1O[C@]2(C=C[C@@H](NC(=O)OCc3ccccc3Cl)[C@]3(CC[C@@](C)([C@H]4CC[C@](O)(CC)[C@H](C)O4)O3)O2)[C@H](C)C[C@@H]1C
SI A2780Cis: 95.4

Turning to the following compound.
I'm curious: which SI A2780Cis was measured for CC[C@@H](C(=O)[C@@H](C)[C@@H](O)[C@H](C)[C@@H]1O[C@@H]([C@@H](CC)C(=O)O)CC[C@@H]1C)[C@H]1O[C@]2(C=C[C@@H](NC(=O)c3cccc(C(F)(F)F)c3)[C@]3(CC[C@@](C)([C@H]4CC[C@](O)(CC)[C@H](C)O4)O3)O2)[C@H](C)C[C@@H]1C tested on A2780Cis (cisplatin-resistant human ovarian cancer)?
22.3

----------
Reported SI MV4-11 values for a set of compounds
System: MV-4-11 (human biphenotypic leukaemia)
test-name: In vitro cytotoxicity, MTT assay, MV-4-11
Format: cell-based
Field format: numeric only.

Please review the entries below; each comes with its answer.
structure-as-smiles: CC[C@@H](C(=O)[C@@H](C)[C@@H](O)[C@H](C)[C@@H]1O[C@@H]([C@@H](CC)C(=O)O)CC[C@@H]1C)[C@H]1O[C@]2(C=C[C@@H](NC(=O)C(=O)NCCc3ccccc3)[C@]3(CC[C@@](C)([C@H]4CC[C@](O)(CC)[C@H](C)O4)O3)O2)[C@H](C)C[C@@H]1C
SI MV4-11: 40.7
--
structure-as-smiles: CC[C@@H](C(=O)[C@@H](C)[C@@H](O)[C@H](C)[C@@H]1O[C@@H]([C@@H](CC)C(=O)O)CC[C@@H]1C)[C@H]1O[C@]2(C=C[C@@H](NC(=O)OCCS(C)(=O)=O)[C@]3(CC[C@@](C)([C@H]4CC[C@](O)(CC)[C@H](C)O4)O3)O2)[C@H](C)C[C@@H]1C
SI MV4-11: 15.7

Turning to the following compound.
Tell me the measured SI MV4-11 of CC[C@@H](C(=O)[C@@H](C)[C@@H](O)[C@H](C)[C@@H]1O[C@@H]([C@@H](CC)C(=O)O)CC[C@@H]1C)[C@H]1O[C@]2(C=C[C@@H](NC(=O)NCc3cccnc3)[C@]3(CC[C@@](C)([C@H]4CC[C@](O)(CC)[C@H](C)O4)O3)O2)[C@H](C)C[C@@H]1C , please.
22.8

----------
Tested on: MV-4-11 (human biphenotypic leukaemia)
test-name: In vitro cytotoxicity, MTT assay, MV-4-11
Assay type: cell-based
measured-attribute: SI MV4-11
Field format: numeric only.

Please review the entries below; each comes with its answer.
structure-as-smiles: CC[C@@H](C(=O)[C@@H](C)[C@@H](O)[C@H](C)[C@@H]1O[C@@H]([C@@H](CC)C(=O)O)CC[C@@H]1C)[C@H]1O[C@]2(C=C[C@@H](NC(=O)OCCF)[C@]3(CC[C@@](C)([C@H]4CC[C@](O)(CC)[C@H](C)O4)O3)O2)[C@H](C)C[C@@H]1C
SI MV4-11: 37.5
--
structure-as-smiles: CC[C@@H](C(=O)[C@@H](C)[C@@H](O)[C@H](C)[C@@H]1O[C@@H]([C@@H](CC)C(=O)O)CC[C@@H]1C)[C@H]1O[C@]2(C=C[C@@H](NS(=O)(=O)c3ccc(Br)cc3)[C@]3(CC[C@@](C)([C@H]4CC[C@](O)(CC)[C@H](C)O4)O3)O2)[C@H](C)C[C@@H]1C
SI MV4-11: 20.7

Turning to the following molecule.
Tell me the measured SI MV4-11 of CC[C@@H](C(=O)[C@@H](C)[C@@H](O)[C@H](C)[C@@H]1O[C@@H]([C@@H](CC)C(=O)O)CC[C@@H]1C)[C@H]1O[C@]2(C=C[C@@H](NC(=O)c3ccccc3C(F)(F)F)[C@]3(CC[C@@](C)([C@H]4CC[C@](O)(CC)[C@H](C)O4)O3)O2)[C@H](C)C[C@@H]1C , please.
59.8

----------
System: MIA PaCa-2 (human pancreatic cancer)
test-name: cells
Assay type: cell-based
measurement-parameters: Table 4; selectivity coefficient vs normal BALB/3T3 fibroblasts
measured-attribute: SI MIA PaCa-2
Field format: numeric only.

molecule: CC[C@@H](C(=O)[C@@H](C)[C@@H](O)[C@H](C)[C@@H]1O[C@@H]([C@@H](CC)C(=O)O)CC[C@@H]1C)[C@H]1O[C@]2(C=C[C@@H](NC(=O)OCCOCCCl)[C@]3(CC[C@@](C)([C@H]4CC[C@](O)(CC)[C@H](C)O4)O3)O2)[C@H](C)C[C@@H]1C [FLC-00454-1•Na]
measured-attribute: SI MIA PaCa-2
obs-value: 6.9

Turning to the following molecule.
I'm curious: which SI MIA PaCa-2 was measured for CC[C@@H](C(=O)[C@@H](C)[C@@H](O)[C@H](C)[C@@H]1O[C@@H]([C@@H](CC)C(=O)O)CC[C@@H]1C)[C@H]1O[C@]2(C=C[C@@H](NC(=O)Nc3c(F)c(F)c(F)c(F)c3F)[C@]3(CC[C@@](C)([C@H]4CC[C@](O)(CC)[C@H](C)O4)O3)O2)[C@H](C)C[C@@H]1C [FLC-00428-1•Na] tested on MIA PaCa-2 (human pancreatic cancer)?
6.6

----------
Test system: NCI-H23 (human lung cancer)
test-name: In vitro cytotoxicity, SRB assay, NCI-H23
Assay type: cell-based
measurement-parameters: Homo sapiens, NCI-H23; 72 h with compound, SRB; n/a = non-active compound; read-out: NCI-H23 IC50
Reported pIC50 values for a set of compounds
Bear in mind: pIC50 is minus log10 of a mol/L concentration; give just that figure.

Please review the entries below; each comes with its answer.
structure-as-smiles: CCCCCCCCNC(=O)N[C@@H]1C=C[C@]2(O[C@H]([C@@H](CC)C(=O)[C@@H](C)[C@@H](O)[C@H](C)[C@@H]3O[C@@H]([C@@H](CC)C(=O)O)CC[C@@H]3C)[C@@H](C)C[C@H]2C)O[C@@]12CC[C@@](C)([C@H]1CC[C@](O)(CC)[C@H](C)O1)O2
pIC50: 8.24
//
structure-as-smiles: CC[C@@H](C(=O)[C@@H](C)[C@@H](O)[C@H](C)[C@@H]1O[C@@H]([C@@H](CC)C(=O)O)CC[C@@H]1C)[C@H]1O[C@]2(C=C[C@@H](NC(=S)Nc3ccc(C(F)(F)F)cc3)[C@]3(CC[C@@](C)([C@H]4CC[C@](O)(CC)[C@H](C)O4)O3)O2)[C@H](C)C[C@@H]1C
pIC50: 8.26
//
structure-as-smiles: CC[C@@H](C(=O)[C@@H](C)[C@@H](O)[C@H](C)[C@@H]1O[C@@H]([C@@H](CC)C(=O)O)CC[C@@H]1C)[C@H]1O[C@]2(C=C[C@@H](NC(=O)NCc3ccccc3)[C@]3(CC[C@@](C)([C@H]4CC[C@](O)(CC)[C@H](C)O4)O3)O2)[C@H](C)C[C@@H]1C
pIC50: 6.35
//
structure-as-smiles: CC[C@@H](C(=O)[C@@H](C)[C@@H](O)[C@H](C)[C@@H]1O[C@@H]([C@@H](CC)C(=O)O)CC[C@@H]1C)[C@H]1O[C@]2(C=C[C@@H](NC(=S)Nc3ccc(C)cc3)[C@]3(CC[C@@](C)([C@H]4CC[C@](O)(CC)[C@H](C)O4)O3)O2)[C@H](C)C[C@@H]1C
pIC50: 8.41
//
structure-as-smiles: CC[C@@H](C(=O)[C@@H](C)[C@@H](O)[C@H](C)[C@@H]1O[C@@H]([C@@H](CC)C(=O)O)CC[C@@H]1C)[C@H]1O[C@]2(C=C[C@@H](NC(=O)Nc3ccccc3)[C@]3(CC[C@@](C)([C@H]4CC[C@](O)(CC)[C@H](C)O4)O3)O2)[C@H](C)C[C@@H]1C
pIC50: 8.53
//
structure-as-smiles: CC[C@@H](C(=O)[C@@H](C)[C@@H](O)[C@H](C)[C@@H]1O[C@@H]([C@@H](CC)C(=O)O)CC[C@@H]1C)[C@H]1O[C@]2(C=C[C@@H](NC(=S)Nc3ccc(F)cc3)[C@]3(CC[C@@](C)([C@H]4CC[C@](O)(CC)[C@H](C)O4)O3)O2)[C@H](C)C[C@@H]1C
pIC50: 8.06

Turning to the following compound.
Tell me the measured pIC50 of CC[C@@H](C(=O)[C@@H](C)[C@@H](O)[C@H](C)[C@@H]1O[C@@H]([C@@H](CC)C(=O)O)CC[C@@H]1C)[C@H]1O[C@]2(C=C[C@@H](NC(=O)NS(=O)(=O)c3ccc(C)cc3)[C@]3(CC[C@@](C)([C@H]4CC[C@](O)(CC)[C@H](C)O4)O3)O2)[C@H](C)C[C@@H]1C , please.
5.32
